tested on: primary human B cells; experiment: B cell activation assay (CD69 on anti-IgM stimulated B cells); format: cell-based; settings: AUC of dose response curve (10 μM to 1 nM) of CD69 MFI normalized to DMSO control
Readout Type: CD69 MFI AUC

1. Cn1cnnc1C(F)(F)[C@](C)(F)c1cccc(N2Cc3c(cc(C(=O)N4CC[C@H](O)C4)cc3C(F)(F)F)C2=O)c1    A (A indicates ≤0.5)
2. Cn1cnnc1CC1(c2cccc(N3Cc4c(cc(CN5CCC6(CC6)C5)cc4C(F)(F)F)C3=O)c2)COC1    D (D indicates ≥1.51)
3. C[C@H](Cc1nncn1C)c1ccnc(NC(=O)c2cccc(C(F)(F)F)n2)c1    B (B indicates 0.5-1.00)
4. Cc1cc(C(=O)Nc2cccc([C@H](C)Cc3nncn3C)c2)nc(C2CC2)n1    D (D indicates ≥1.51)
5. C[C@H](Sc1nncn1C)c1cccc(NC(=O)c2cc(C(=O)N3CC[C@H](O)C3)ccn2)c1    A (A indicates ≤0.5)
6. C[C@H](Cc1nncn1C)c1cccc(N2Cc3c(cc(CN4CC(O)C4)cc3C(F)(F)F)C2=O)c1    B (B indicates 0.5-1.00)
7. C[C@H](Cc1nncn1C)c1cccc(N2Cc3c(cc(CN4CC(C)(O)C4)cc3C(F)(F)F)C2=O)c1    B (B indicates 0.5-1.00)

---

target: Cbl-b (residues 36-427) (Homo sapiens)
Sequence (Q13191 36-427): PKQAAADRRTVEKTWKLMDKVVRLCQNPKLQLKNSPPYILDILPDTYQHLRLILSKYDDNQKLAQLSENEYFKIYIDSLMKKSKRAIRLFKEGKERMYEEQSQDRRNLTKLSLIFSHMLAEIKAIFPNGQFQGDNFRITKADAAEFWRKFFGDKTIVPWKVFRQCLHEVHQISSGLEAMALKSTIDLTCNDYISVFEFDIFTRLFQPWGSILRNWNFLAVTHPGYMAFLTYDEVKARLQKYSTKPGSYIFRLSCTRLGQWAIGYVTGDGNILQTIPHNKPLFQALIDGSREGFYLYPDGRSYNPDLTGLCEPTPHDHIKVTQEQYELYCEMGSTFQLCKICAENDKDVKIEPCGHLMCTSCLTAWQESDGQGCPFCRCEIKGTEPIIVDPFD
pKd: −log10 of the molar value.
Readout Type: pKd

1. C[C@H](Sc1nncn1C)c1ccnc(NC(=O)c2ccc3cccc(F)c3n2)c1    5.00 to 5.52
2. C[C@H](Sc1nncn1C)c1cccc(NC(=O)c2cc(C(F)(F)F)ccn2)c1    5.52 to 6.00
3. C[C@H](Sc1nncn1C)c1ccnc(NC(=O)c2cc(C(F)(F)F)c3ccccc3n2)c1    5.00 to 5.52
4. C[C@H](Sc1nncn1C)c1cccc(N2Cc3cc(Cl)ccc3C2=O)c1    5.52 to 6.00
5. C[C@H](Cc1nncn1C)c1cccc(N2Cc3c(cc(N(C)[C@H]4CCNC4)cc3C(F)(F)F)C2=O)c1    > 7.00
6. C[C@H](Cc1nncn1C)c1cccc(NC(=O)c2cc(N[C@@H]3CC[C@H](O)C3)ccn2)c1    5.52 to 6.00
7. Cn1cnnc1CC(C)(C)c1cccc(N2Cc3c(cccc3C(F)(F)F)C2=O)c1    6.52 to 7.00
8. C[C@H](Cc1nncn1C)c1cccc(N2Cc3c(cc(C(C)(C)O)cc3C(F)(F)F)C2=O)c1    6.52 to 7.00

---

We begin with a simple list: items and their reported fold induction at 4 µM.
tested on: T-cell; assay: CD25 cell surface staining on T-cells co-stimulated with anti-CD3 and anti-CD28 antibody (Biological Example 2); assay type: cell-based, human; conditions: Homo sapiens, T-cell, fold change over baseline; 4 μM Cbl-b inhibitor; primary human total T-cells; read-out: CD25 staining Anti-CD3/Anti-CD28 stimulation
Readout Type: fold induction at 4 µM

1. C[C@H](Cc1nncn1C)c1cccc(NC(=O)c2cc(C(C)(C)O)c(Cl)cn2)c1 [Compound 186]    > 1.76
2. C[C@H](Cc1nncn1C)c1ccnc(N2Cc3c(cccc3C(F)(F)F)C2=O)c1 [Compound 304b]    1.31 to 1.5
3. C[C@@H](Cc1nncn1C)c1cccc(NC(=O)c2cc(C3CC3)cc(C(F)(F)F)n2)c1 [Compound 322]    1.01 to 1.3
4. C[C@H](Cc1nncn1C)c1cccc(NC(=O)c2cncc(C(F)(F)F)n2)c1 [Compound 189]    > 1.76
5. Cc1cc(C(=O)Nc2cccc([C@H](C)Cc3nncs3)c2)nc(C2CC2)n1 [Compound 334]    1.01 to 1.3
6. C[C@H](Sc1nncn1C)c1cccc(NC(=O)c2ccc(CO)c(C3CC3)n2)c1 [Compound 89]    1.31 to 1.5
7. C[C@H](Cc1nncn1C)c1cccc(NC(=O)c2ccc(CO)c(C3CC3)n2)c1 [Compound 203]    1.51 to 1.75
8. C[C@H](Cc1nncn1C)c1cccc(NC(=O)c2cc(C(=O)N3C[C@@H](O)C[C@H]3C)ccn2)c1 [Compound 224]    1.51 to 1.75
9. C[C@H](Cc1nncn1C)c1cccc(NC(=O)c2nc3c(C(F)(F)F)cccc3[nH]2)c1 [Compound 196]    > 1.76
10. C[C@H](Cc1nncn1C)c1cccc(NC(=O)c2cccc(S(C)(=O)=O)n2)c1 [Compound 185]    > 1.76
11. C[C@@H](c1cccc(N2Cc3c(cccc3C(F)(F)F)C2=O)c1)[C@@H](O)c1nncn1C (racemic) [Compound 292]    1.01 to 1.3
12. Cc1ccc(C(=O)Nc2cccc([C@@H](C)Cc3nccn3C)c2)nc1C1CC1 [Compound 331]    1.01 to 1.3
13. Cc1ccnn1CC(C)c1cccc(NC(=O)c2cccc(C(F)(F)F)n2)c1 (stereo not shown) [Compound 215]    1.51 to 1.75
14. Cc1cc(C(=O)Nc2cccc([C@H](C)Cc3nocc3C)c2)nc(C2CC2)n1 [Compound 330]    1.01 to 1.3
15. C[C@H](Cc1nncn1C)c1cccc(NC(=O)c2cc(C3CC3)nc(C3CC3)n2)c1 [Compound 193]    1.51 to 1.75
16. Cc1cc(C(=O)Nc2cc([C@H](C)Sc3nncn3C)ccn2)nc(C(F)(F)F)c1 [Compound 103]    1.01 to 1.3
